- Target: T1, UNK ZnF1-3 (human, UniProt Q9C0B0 31-174)
- T1 sequence: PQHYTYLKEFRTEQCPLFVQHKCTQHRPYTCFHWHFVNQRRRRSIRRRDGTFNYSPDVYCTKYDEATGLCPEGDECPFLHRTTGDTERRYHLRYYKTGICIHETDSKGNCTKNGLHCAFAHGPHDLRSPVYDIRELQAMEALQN
- Experiment notes: nsRBNS (natural sequence RNA bind-n-seq); RBNS binding buffer (assumed for nsRBNS): 25 mM Tris pH 7.5, 150 mM KCl, 3 mM MgCl2, 0.01% Triton X-100, 500 ug/ml BSA, 20 U/ml SUPERase-In, 4 C; UNK is unkempt and MSI1 is Musashi-1; names of the RNAs are library labels; protein concentration not given here; high values mean tight binding
In all, about 24,000 sequences were measured (“enrichment r”: median about 0.99, highest 2% from about 3.7 on). Shown is part of a subset that was picked to be rich in the highest values.
Label scheme for binding signal: lower than 1 enrichment R is Not met, 1 enrichment R and above is Met.

Take a look at these entries with their results.
Binder	Qualitative label
98509248_98511339_722_CDS_ENSG00000140450_ENST00000268042|human|control|control (ssRNA) RNA: GGGAGUUCUACAGUCCGACGAUCGUAUCCCUUUCUUUCAAUUUUGGCACUCAGCGAGACUGGACCAGAAGUGAAAAACCAACAGCCAACCAUUUUCUCUUGAGUUUUCAAUACAGGGGUUAAUAAUGCUGGUGUGUUGACAUCCAACAGAGGAUUGAGCAUCA	Met
96523144_96524318_649_CDS_ENSMUSG00000031751_ENSMUST00000053766|mouse|control|control (ssRNA) RNA: GGGAGUUCUACAGUCCGACGAUCGGAAAGGUAUUCAAAUCUGUCUUUGCAGAGCUGAACCAUCAGAUGCAGGAAGACAAGUCCAGCAAACCAGAGGCACCACAUCACCACUUCCUCCACAGUCUGGACAUUCAGCACUCCAAACAACAGAGGAUUGAGCAUCA	Met

input: I'd appreciate it if you could say whether chr15:55677894:55677895:-_ENSG00000260916_ENST00000569205|hu_mus|motif|central (ssRNA) RNA: GGGAGUUCUACAGUCCGACGAUCGGAACAUUCUAGAGUCAGUCCACAGUUGUCACUGGCUGUGGCAGAAUUCACGAUCUCGGUAUCAGAACCCUCAUGAUUGAUGACAGUCCAGCCACAAGAUGAGUCGCUGUCGCUGGAACUCAACAGAGGAUUGAGCAUCA has binding signal at least equal to 1 enrichment R.
output: Not met

input: Identify whether the reported binding signal of the following binder is 1 enrichment R or greater: chr4:42581876:42581877:-_ENSG00000124406_ENST00000264449|hu_hu|FALSE|FALSE (ssRNA) RNA: GGGAGUUCUACAGUCCGACGAUCGCCACCAUAGUUUAGAUUGAGAUACCAGUCUUUUCCAGAAUGCCUUCGAUUCCAAAUGGCUGAGCCCACAGAACAGACAAGAGACAUGGCAAUUAAGAUACAAAAUAAAAUCAAAAUUUGCAACAGAGGAUUGAGCAUCA
output: Met

input: Form field: binding signal at least 1 enrichment R? Entry: chr8:133807003:133807004:+_ENSG00000129292_ENST00000220847|hu_mus|FALSE|FALSE (ssRNA) RNA: GGGAGUUCUACAGUCCGACGAUCUUUGUUAAUUGCUUCAAUCUUGGCAGGGUAAUAGCGACAGUCUGUCCAACGAGCCAGUACUUCUUCUCCAGCUUUAAAAUCAAAGAGCUCUUCCUCAUCCUUUAGCCCUUCUUUCCUUAGCAACAGAGGAUUGAGCAUCA
output: Not met

This collection of values is drawn from paper PMC12136788.
